Reference source for all entries: ChEMBL document CHEMBL4513216

# Run description: Toxicity liver stage against HepG2, at 10uM
# Type: cell-based
# Design: test concentration 10 uM, cell line HepG2-A16-CD81EGFP
# Conditions used: human, HepG2-A16-CD81EGFP cells; read-out: INHIBITION
Measurement name: cytotoxicity at 10 µM (%)
Note: unit % is implicit; provide only the numeric part.

Compound: C[C@@H]1CN(C(=O)c2ccc(C#N)nc2)CC[C@@]1(O)C1CCOCC1
cytotoxicity at 10 µM [%]: -11.5

Compound: COc1cc2c(cc1OC)CN(C(=O)NCC1CCCO1)CC2 (centres undefined)
cytotoxicity at 10 µM [%]: -16

Compound: Cc1ccccc1-n1cnnc1SCCOCC1CCCO1 (centres undefined)
cytotoxicity at 10 µM [%]: -3.73

From here, focus on the item given below.
# get_value(readout='cytotoxicity at 10 µM', item= CC(c1ccc2c(c1)OCCO2)N(C)C(=O)c1ccnnc1 (centres undefined) ) 0.94

----------
# Run description: Toxicity liver stage against HepG2, at 10uM
# Type: cell-based
# Parameters: test concentration 10 uM, cell line HepG2-A16-CD81EGFP
# Conditions used: human, HepG2-A16-CD81EGFP cells; read-out: INHIBITION
Measurement name: cytotoxicity at 10 µM
Report as: number unit

Compound: CN(C)C(=O)C1OC2(CCN(C(=O)c3ccco3)CC2)c2ccccc21 (centres undefined)
Value measured: 4.93%
--
Compound: Cc1ccc(-n2nnc(C(=O)NC(C)C)c2C2CC2)cc1
Value measured: -3.37%
--
Compound: CCNC(=O)CN1CCC(c2cc(OC)cc(OC)c2)C1 (centres undefined)
Value measured: -5.66%
--
Compound: COc1cccc(C2CCN2C(=O)c2cc(C(C)C)on2)c1 (centres undefined)
Value measured: -2.96%
--
Compound: CN(C)C(=O)CN1CCC2(C1)CN(CC1CCOC1)C2 (centres undefined)
Value measured: 8.43%

# get_value(readout='cytotoxicity at 10 µM', item= `Cc1nccn1CC1CCN(C(=O)c2cccs2)CC1` ) -14.2%

# get_value(readout='cytotoxicity at 10 µM', item= CC(C)Cn1cnnc1C1CCCN1C(=O)OC(C)(C)C (centres undefined) ) 0.514%

# get_value(readout='cytotoxicity at 10 µM', item= `CC(C)(C)c1cc(C(=O)NCCN2CCCS2(=O)=O)[nH]n1` ) -8.16%

# get_value(readout='cytotoxicity at 10 µM', item= O=S(=O)(CCCN1CCCC1Cn1cccn1)c1ccccc1 (centres undefined) ) -5.18%

----------
# Run description: Toxicity liver stage against HepG2, at 10uM
# Format: cell-based
# Set-up: test concentration 10 uM, cell line HepG2-A16-CD81EGFP
# Conditions used: human, HepG2-A16-CD81EGFP cells; read-out: INHIBITION
In this section, each of the molecules is paired with its reported cytotoxicity at 10 µM.
Note: unit % is implicit; provide only the numeric part.

# example entries with known answers
Molecule: Cc1cc(CN2Cc3ccccc3CC2c2nnc(C)o2)on1 (stereo not given)
cytotoxicity at 10 µM [%]: -0.962

Molecule: Cc1nccn1CC1CCCN1S(=O)(=O)Cc1ccc(F)cc1 (stereo not given)
cytotoxicity at 10 µM [%]: -7.69

Molecule: COc1ccc(S(=O)(=O)NCC(O)c2sccc2C)cc1Cl (stereo not given)
cytotoxicity at 10 µM [%]: 1.17

# get_value(readout='cytotoxicity at 10 µM', item= `CCN1CCc2[nH]cnc2C12CCN(c1ccc(Cl)c(C(=O)O)n1)CC2` ) 2.74

# get_value(readout='cytotoxicity at 10 µM', item= CCc1ccc(C2CC(=O)Nc3c2c(=O)n(C)c2ncnn32)cc1 (stereo not given) ) 8.16

# get_value(readout='cytotoxicity at 10 µM', item= `COc1cccc(CC(=O)N2CC[C@@H]3NC(=O)CC[C@@H]32)c1` ) -4.04

# get_value(readout='cytotoxicity at 10 µM', item= `CN(Cc1ccc2c(c1)OCCO2)C(=O)Cn1cccnc1=O` ) 3.01

# get_value(readout='cytotoxicity at 10 µM', item= COc1ccc(NC(=O)N(CC2CCOC2)C2CC2)cn1 (stereo not given) ) -6.95

----------
# Run description: Toxicity liver stage against HepG2, at 10uM
# Assay type: cell-based
# Parameters: test concentration 10 uM, cell line HepG2-A16-CD81EGFP
# Conditions used: human, HepG2-A16-CD81EGFP cells; read-out: INHIBITION
In this section, each of the compounds is paired with its reported cytotoxicity at 10 µM.
Note: unit % is implicit; provide only the numeric part.

Compound: Cn1cc(CN2CCCC(O)C2)c(-c2ccccc2F)n1 (stereo not given)
cytotoxicity at 10 µM, %: -2.31

Compound: COc1ccc(-n2nnc(C(=O)NCC3CCCCC3)n2)cc1
cytotoxicity at 10 µM, %: 1.01

Compound: c1ccc(Cc2noc(CN3CCc4c(ncn4C4CC4)C3)n2)cc1
cytotoxicity at 10 µM, %: 2.1

Compound: Cc1ncsc1C(=O)N(C)CCc1ccncc1
cytotoxicity at 10 µM, %: -3.81

# get_value(readout='cytotoxicity at 10 µM', item= `CCN1C(=O)C2(CCOCC2)c2cc(NC(=O)c3cnoc3C)ccc21` ) -2.54

----------
# Run description: Toxicity liver stage against HepG2, at 10uM
# Assay type: cell-based
# Parameters: test concentration 10 uM, cell line HepG2-A16-CD81EGFP
# Conditions used: human, HepG2-A16-CD81EGFP cells; read-out: INHIBITION
In this section, each of the compounds is paired with its reported cytotoxicity at 10 µM.
Note: unit % is implicit; provide only the numeric part.

# example entries with known answers
Compound: O=C(Cn1cnc(NC(=O)c2ccccn2)n1)NCc1ccccc1
cytotoxicity at 10 µM, %: 9.97
//
Compound: Cc1noc(C(C)C)c1C(=O)NCC(c1ccccc1)N(C)C (centres undefined)
cytotoxicity at 10 µM, %: -7.72
//
Compound: CC(C(=O)N(C)C1CCCCC1)S(=O)(=O)Cc1csc(-c2cccs2)n1 (centres undefined)
cytotoxicity at 10 µM, %: -4.27
//
Compound: CN(C)C(=O)CNC(=O)c1ccc2c(-c3nccs3)noc2c1
cytotoxicity at 10 µM, %: 7.19
//
Compound: O=C(O)c1nnn(-c2ccccc2F)c1-c1ccncc1
cytotoxicity at 10 µM, %: 10.2

# get_value(readout='cytotoxicity at 10 µM', item= `CCc1cc(N(C)Cc2[nH]nc3c2CCC3)nc(N2CCOCC2)n1` ) 5.51

# get_value(readout='cytotoxicity at 10 µM', item= `Cc1cc(-c2cnc(NC3CC3)nc2-c2ccc(C)o2)on1` ) 2.26

# get_value(readout='cytotoxicity at 10 µM', item= CCc1cnc(CCNC(C)CC(=O)Nc2cccc(C)c2C)s1 (centres undefined) ) 6.69

# get_value(readout='cytotoxicity at 10 µM', item= CNC(=O)NC(=O)CN1CCCC(Cc2ccccc2OC)C1 (centres undefined) ) 4.95

# get_value(readout='cytotoxicity at 10 µM', item= CC(C)c1noc(CCNC(=O)NCC2Cc3ccccc3O2)n1 (centres undefined) ) 7.4

# get_value(readout='cytotoxicity at 10 µM', item= COCCC(=O)N1CCOCC2(CCN(Cc3cccs3)C2)C1 (centres undefined) ) -7.83

# get_value(readout='cytotoxicity at 10 µM', item= `CCOc1cc([C@H]2N[C@@H](c3nc(C)cs3)Cc3ccsc32)ccc1OC` ) 24.3

# get_value(readout='cytotoxicity at 10 µM', item= Cc1ccsc1C1CCCCCN1Cc1cn(C)nc1C (centres undefined) ) -4.38

# get_value(readout='cytotoxicity at 10 µM', item= `CCOC(=O)N1CCN(CC(=O)Nc2ccc(F)cc2Cl)CC1` ) 6

# get_value(readout='cytotoxicity at 10 µM', item= `CCS(=O)(=O)NCCNC(C)(C)c1nc(C)cs1` ) -0.396

# get_value(readout='cytotoxicity at 10 µM', item= `CCc1cc(NCCNC(=O)c2cccnc2)n2nc(C)c(C)c2n1` ) -3.05

# get_value(readout='cytotoxicity at 10 µM', item= `Cc1nnc2n1CCN(CCC(=O)Nc1sccc1C#N)C2` ) -2.28

# get_value(readout='cytotoxicity at 10 µM', item= `O=C(O)c1ccnc(SCC(=O)c2ccccc2)c1` ) -3.78

# get_value(readout='cytotoxicity at 10 µM', item= Cc1cn2cc(C(=O)NC3CCCN(c4ncccn4)C3)ccc2n1 (centres undefined) ) 12.1

----------
# Run description: Toxicity liver stage against HepG2, at 10uM
# Format: cell-based
# Design: test concentration 10 uM, cell line HepG2-A16-CD81EGFP
# Conditions used: human, HepG2-A16-CD81EGFP cells; read-out: INHIBITION
In this section, each of the compounds is paired with its reported cytotoxicity at 10 µM.
Note: unit % is implicit; provide only the numeric part.

# example entries with known answers
Compound: O=C(CCNc1ncccn1)Nc1cc(C(F)(F)F)c[nH]c1=O
Measurement name: cytotoxicity at 10 µM
Value measured: -6.45

Compound: CCN1C[C@H]2[C@@H](C1)N(c1ncc(F)cn1)CC[C@H]2OC
Measurement name: cytotoxicity at 10 µM
Value measured: 3.5

Compound: c1ccc(CN2CCCC(c3nccnc3-n3ccnc3)C2)cc1 (stereo unspecified)
Measurement name: cytotoxicity at 10 µM
Value measured: -4.56

Compound: O=C(N[C@@H]1CCN(C(=O)C2CCOCC2)C[C@H]1O)c1ccccn1
Measurement name: cytotoxicity at 10 µM
Value measured: -2.88

Compound: CS(=O)(=O)NCC1CCCCN1C(=O)c1ccsc1 (stereo unspecified)
Measurement name: cytotoxicity at 10 µM
Value measured: 0.555

# get_value(readout='cytotoxicity at 10 µM', item= COc1cccc(CC2(CO)CCCN(c3nccs3)C2)c1 (stereo unspecified) ) -4.59

# get_value(readout='cytotoxicity at 10 µM', item= `CN1CCCN(C(=O)c2csc(-c3ccc(C(F)(F)F)cc3)n2)CC1` ) -5.81

# get_value(readout='cytotoxicity at 10 µM', item= `CN(C)c1ncc(-c2cc(C(=O)NC(C)(C)CO)n(CC3CC3)c2)cn1` ) -13.4
